Here, each record is paired with measured Emax at 2 h, 100 µM data.
Target: ABCG2 (Homo sapiens)
Test: Inhibition of ABCG2 in human MCF7/Topo cells at 100 uM after 2 hrs by Hoechst 33342 staining based fluorescence assay relative to 10 uM FTC
Assay type: cell-based
Conditions: probe Hoechst 33342, read-out: Imax
Numbers only here, please. The scale is %.

COCCOc1cc2c(cc1OC)CCN(CCOc1ccc(/C=C/C(=O)c3ccc(C)c(NC(=O)c4ccc5ccccc5n4)c3)cc1)C2: 97

Incoming: What value of Emax at 2 h, 100 µM has been reported for the following molecule? `COc1cc2c(cc1OC)CN(CC(=O)c1ccc(C)c(NC(=O)c3ccc4ccccc4n3)c1)CC2`
Outgoing: 77

Incoming: And for `COCCOCCOCCOc1cc2c(cc1OC)CCN(CC(=O)c1ccc(C)c(NC(=O)c3ccc4ccccc4n3)c1)C2` ?
Outgoing: 86

Incoming: And for `COc1cc2c(cc1OC)CN(CC(=O)c1cccc(NC(=O)c3ccc4ccccc4n3)c1)CC2` ?
Outgoing: 77

Incoming: And for `COCCOc1cc2c(cc1OC)CCN(CC(=O)c1cccc(NC(=O)c3ccc4ccccc4n3)c1)C2` ?
Outgoing: 55

Incoming: And for `COCCOCCOCCOc1cc2c(cc1OC)CCN(CCOc1ccc(/C=C/C(=O)c3cccc(NC(=O)c4ccc5ccccc5n4)c3)cc1)C2` ?
Outgoing: 81

Incoming: And for `COCCOCCOCCOc1cc2c(cc1OC)CCN(CCOc1ccc(/C=C/C(=O)c3ccc(C)c(NC(=O)c4ccc5ccccc5n4)c3)cc1)C2` ?
Outgoing: 111

Incoming: And for `COc1cc2c(cc1OC)CN(CCOc1ccc(/C=C/C(=O)c3ccc(C)c(NC(=O)c4ccc5ccccc5n4)c3)cc1)CC2` ?
Outgoing: 86

---

Target: Broad substrate specificity ATP-binding cassette transporter ABCG2 (Homo sapiens, UniProt Q9UNQ0)
Assay: Inhibition of ABCG2 (unknown origin) expressed in MDCK2 cells incubated for 30 mins measured at 60 secs interval for 120 mins by Hoechst 33342 staining based fluorescence assay
Type: cell-based
READOUT_LABEL: pIC50
pIC50 here is simply -log10 of the concentration when that concentration is written in mol/L.

Incoming: What value of pIC50 has been reported for the following compound? `COc1ccc(/C=C/C(=O)c2ccccc2NC(=O)c2cccs2)cc1OC`
Outgoing: 6.30

---

Target: Broad substrate specificity ATP-binding cassette transporter ABCG2 (Homo sapiens)
Test: Inhibition of ABCG2 (unknown origin) expressed in HEK293 cells assessed as reduction in mitoxantrone efflux measured after 30 mins by fluorescence assay
Type: cell-based
READOUT_LABEL: IC50 (nM)
Numbers only here, please. The scale is nM.

Incoming: What value of IC50 has been reported for the following compound? `COc1cc(OC)c(C(=O)/C=C/c2ccc3nccnc3c2)cc1OC`
Outgoing: 1400

---

Target: ABCG2 (Homo sapiens, UniProt Q9UNQ0)
Sequence (Q9UNQ0 whole entry): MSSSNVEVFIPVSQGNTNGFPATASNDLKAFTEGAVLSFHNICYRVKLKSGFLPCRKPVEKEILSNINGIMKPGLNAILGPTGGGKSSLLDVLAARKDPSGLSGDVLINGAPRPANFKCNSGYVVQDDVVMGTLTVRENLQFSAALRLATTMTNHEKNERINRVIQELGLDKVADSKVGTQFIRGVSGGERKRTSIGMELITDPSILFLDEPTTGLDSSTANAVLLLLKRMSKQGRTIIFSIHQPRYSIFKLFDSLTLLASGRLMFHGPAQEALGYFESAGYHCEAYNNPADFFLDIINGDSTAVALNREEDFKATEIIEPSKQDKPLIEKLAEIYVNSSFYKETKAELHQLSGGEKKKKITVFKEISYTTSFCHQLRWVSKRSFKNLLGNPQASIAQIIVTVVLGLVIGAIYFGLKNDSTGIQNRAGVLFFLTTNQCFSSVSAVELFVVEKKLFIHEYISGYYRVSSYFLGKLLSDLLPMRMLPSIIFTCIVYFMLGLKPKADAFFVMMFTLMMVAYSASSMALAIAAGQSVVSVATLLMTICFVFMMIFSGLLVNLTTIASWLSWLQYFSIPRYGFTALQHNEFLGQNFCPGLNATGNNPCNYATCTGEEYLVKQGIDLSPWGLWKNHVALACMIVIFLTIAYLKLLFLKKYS
Test: Inhibition of ABCG2 in human MCF7/Topo cells at 100 uM after 2 hrs by Hoechst 33342 staining based fluorescence assay relative to 10 uM FTC
Format: cell-based
Conditions: probe Hoechst 33342, read-out: Imax
Here, each record is paired with measured Emax at 2 h, 100 µM data.
Numbers only here, please. The scale is %.

Incoming: What value of Emax at 2 h, 100 µM has been reported for the following molecule? `COCCOCCOCCOc1cc2c(cc1OC)CCN(CC(=O)c1cccc(NC(=O)c3ccc4ccccc4n3)c1)C2`
Outgoing: 47

---

Target: Broad substrate specificity ATP-binding cassette transporter ABCG2 (Homo sapiens, UniProt Q9UNQ0)
Test: Inhibition of ABCG2 in human MCF7/Topo cells after 2 hrs by Hoechst 33342 staining based fluorescence assay
Format: cell-based
Here, each record is paired with measured IC50 data.
Please answer in the form of a number followed by its unit of measurement.

Use these answered entries as a reference point.
COCCOCCOCCOc1cc2c(cc1OC)CCN(CCOc1ccc(/C=C/C(=O)c3cccc(NC(=O)c4ccc5ccccc5n4)c3)cc1)C2: 2.83 µM
COc1cc2c(cc1OC)CN(CC(=O)c1cccc(NC(=O)c3ccc4ccccc4n3)c1)CC2: 6.73 µM
COc1cc2c(cc1OC)CN(CC(=O)c1ccc(C)c(NC(=O)c3ccc4ccccc4n3)c1)CC2: 8.76 µM
COCCOc1cc2c(cc1OC)CCN(CCOc1ccc(/C=C/C(=O)c3ccc(C)c(NC(=O)c4ccc5ccccc5n4)c3)cc1)C2: 1.55 µM

Incoming: What value of IC50 has been reported for the following molecule? `COCCOc1cc2c(cc1OC)CCN(CCOc1ccc(/C=C/C(=O)c3cccc(NC(=O)c4ccc5ccccc5n4)c3)cc1)C2`
Outgoing: 2.13 µM

Incoming: And for `COc1cc2c(cc1OC)CN(CCOc1ccc(/C=C/C(=O)c3cccc(NC(=O)c4ccc5ccccc5n4)c3)cc1)CC2` ?
Outgoing: 4.08 µM

Incoming: And for `COCCOCCOCCOc1cc2c(cc1OC)CCN(CC(=O)c1ccc(C)c(NC(=O)c3ccc4ccccc4n3)c1)C2` ?
Outgoing: 6.65 µM

Incoming: And for `COc1cc2c(cc1OC)CN(CCOc1ccc(/C=C/C(=O)c3ccc(C)c(NC(=O)c4ccc5ccccc5n4)c3)cc1)CC2` ?
Outgoing: 0.88 µM

Incoming: And for `COCCOCCOCCOc1cc2c(cc1OC)CCN(CC(=O)c1cccc(NC(=O)c3ccc4ccccc4n3)c1)C2` ?
Outgoing: 1.13 µM

Incoming: And for `COCCOc1cc2c(cc1OC)CCN(CC(=O)c1ccc(C)c(NC(=O)c3ccc4ccccc4n3)c1)C2` ?
Outgoing: 23.2 µM

Incoming: And for `COCCOCCOCCOc1cc2c(cc1OC)CCN(CCOc1ccc(/C=C/C(=O)c3ccc(C)c(NC(=O)c4ccc5ccccc5n4)c3)cc1)C2` ?
Outgoing: 2.72 µM

Incoming: And for `COCCOc1cc2c(cc1OC)CCN(CC(=O)c1cccc(NC(=O)c3ccc4ccccc4n3)c1)C2` ?
Outgoing: 14.4 µM

---

Here, each record is paired with measured Emax at 2 h, 100 µM data.
Molecular target: ABCG2 (Homo sapiens, UniProt Q9UNQ0)
Assay: Inhibition of ABCG2 in human MCF7/Topo cells at 100 uM after 2 hrs by Hoechst 33342 staining based fluorescence assay relative to 10 uM FTC
Format: cell-based
Details: probe Hoechst 33342, read-out: Imax
Numbers only here, please. The scale is %.

Use these answered entries as a reference point.
COCCOc1cc2c(cc1OC)CCN(CC(=O)c1ccc(C)c(NC(=O)c3ccc4ccccc4n3)c1)C2: 79
COCCOc1cc2c(cc1OC)CCN(CCOc1ccc(/C=C/C(=O)c3cccc(NC(=O)c4ccc5ccccc5n4)c3)cc1)C2: 72

# evaluate next
Incoming: What value of Emax at 2 h, 100 µM has been reported for the following molecule? `COc1cc2c(cc1OC)CN(CCOc1ccc(/C=C/C(=O)c3cccc(NC(=O)c4ccc5ccccc5n4)c3)cc1)CC2`
Outgoing: 79
